# credit: patent US20220204592A1

Some binders, each annotated with its measured Kd.
- target-or-system: H5 hemagglutinin (A/Vietnam/1203/2004) (influenza A virus A/Vietnam/1203/2004 (H5N1))
- protocol-notes: ELISA on coated HA, relative Kd (4-parameter fit)
Note: unit pM is implicit; provide only the numeric part.

Study these solved cases before continuing.
binder	value-kind	reading
Ab 037 (antibody, V domains shown) VH: EVQLLESGGGLVKPGQSLKLSCAASGFTFTSYAMHWVRQPPGKGLEWVAVVSYDGNYKYYADSVQGRFTISRDNSKNTLYLQMNSLRAEDTAVYYCAKDSRLRSLLYFEWLSQGYFNPWGQGTTLTVSS VL: DIQMTQSPSSLSASVGDRVTITCRSSQSITFNYKNYLGWYQQKPGKAPKLLIYWGSYLESGVPSRFSGSGSGTDFTLTISSLQPEDFATYYCQQHYRTPPSFGQGTKVEIK	Kd	59
Ab 005 (antibody, V domains shown) VH: QVQLLETGGGLVKPGQSLKLSCAASGFTFTSYAMHWVRQPPGKGLEWVAVVSYDGNYKYYADSVQGRFTISRDNSKNTLYLQMNSLRAEDTAVYYCAKDSRLRSLLYFEWLSQGYFNPWGQGTTLTVSS VL: DIVMTQSPDTVAVTVGERATINCKSSQTVTFNYKNYLAWYQQKPGQPPKLLIYWASTRESGVPDRFSGSGSGTDFTLTISSLQAEDVAVYYCQQHYRTPPSFGQGTKLDIK	Kd	38

Now consider the entry below.
INPUT: Entry Ab 038 (antibody, V domains shown) VH: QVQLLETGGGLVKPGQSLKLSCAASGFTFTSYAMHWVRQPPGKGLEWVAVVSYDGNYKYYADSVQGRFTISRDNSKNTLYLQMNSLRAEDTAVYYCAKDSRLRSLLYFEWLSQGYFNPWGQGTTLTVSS VL: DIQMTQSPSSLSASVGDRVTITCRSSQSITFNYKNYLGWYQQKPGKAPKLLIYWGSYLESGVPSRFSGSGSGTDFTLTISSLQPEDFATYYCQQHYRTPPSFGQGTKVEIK needs its Kd filled in; supply it.
OUTPUT: 87
